test system: Saccharomyces cerevisiae BY4741 SeMeCo community; experiment: z-score of subpopulation abundance vs DMSO median, subpopulation auxotrophic for HLM; higher = larger share of this subpopulation than in DMSO controls; conditions: 10 µM; 24 h; SM minimal medium; subpopulation (auxotrophy): HLM
Where a name gives a salt, the structure may show the parent alone.
Could you label it TRUE if measured z-score of subpopulation abundance is 0.5 or higher, and FALSE otherwise?

[
  {
    "compound": "COc1cnc(NS(=O)(=O)c2ccc(N)cc2)nc1",
    "study target": "Saccharomyces cerevisiae BY4741 SeMeCo community",
    "label": "FALSE"
  },
  {
    "compound": "Oc1c(I)cc(I)c2cccnc12 [Diiodohydroxyquinoline]",
    "study target": "Saccharomyces cerevisiae BY4741 SeMeCo community",
    "label": "TRUE"
  },
  {
    "compound": "CN1CCCN=C1/C=C/c1cccs1 [Pyrantel Pamoate]",
    "study target": "Saccharomyces cerevisiae BY4741 SeMeCo community",
    "label": "TRUE"
  },
  {
    "compound": "C=CC[N+]1([C@H]2C[C@H]3[C@@H]4CC[C@H]5C[C@H](O)[C@@H](N6CCOCC6)C[C@]5(C)[C@H]4CC[C@]3(C)[C@H]2OC(C)=O)CCCC1 [Rocuronium Bromide]",
    "study target": "Saccharomyces cerevisiae BY4741 SeMeCo community",
    "label": "FALSE"
  }
]

Asked: Kindly determine if z-score of subpopulation abundance recorded for O=C(O)c1cc(/N=N/c2ccc(O)c(C(=O)O)c2)ccc1O [Olsalazine Sodium] is above or exactly 0.5.
Given back: FALSE

Asked: Kindly determine if z-score of subpopulation abundance recorded for COc1cc(O)c(C(=O)Nc2nc(C(=O)NCCN(C(C)C)C(C)C)cs2)cc1OC [Acotiamide] is above or exactly 0.5.
Given back: TRUE

Asked: Kindly determine if z-score of subpopulation abundance recorded for O=C(O)c1cc(O)c2c(c1)[C@H]([C@H]1c3cc(C(=O)O)cc(O)c3C(=O)c3c(O[C@@H]4O[C@H](CO)[C@@H](O)[C@H](O)[C@H]4O)cccc31)c1cccc(O[C@@H]3O[C@H](CO)[C@@H](O)[C@H](O)[C@H]3O)c1C2=O [Sennoside A] is above or exactly 0.5.
Given back: FALSE

Asked: Kindly determine if z-score of subpopulation abundance recorded for CC(C)(C)C(=O)OCOC(=O)[C@@H]1N2C(=O)[C@@H](/N=C/N3CCCCCC3)[C@H]2SC1(C)C [Pivmecillinam hydrochloride] is above or exactly 0.5.
Given back: FALSE

Asked: Kindly determine if z-score of subpopulation abundance recorded for Cc1ccccc1OCC(O)CO (configuration not stated) is above or exactly 0.5.
Given back: FALSE

Asked: Kindly determine if z-score of subpopulation abundance recorded for CO[C@H]1C[C@@H]2CC[C@@H](C)[C@@](O)(O2)C(=O)C(=O)N2CCCC[C@H]2C(=O)O[C@H]([C@H](C)C[C@@H]2CC[C@@H](OC(=O)C(C)(CO)CO)[C@H](OC)C2)CC(=O)[C@H](C)/C=C(\C)[C@@H](O)[C@@H](OC)C(=O)[C@H](C)C[C@H](C)/C=C/C=C/C=C/1C is above or exactly 0.5.
Given back: TRUE

Asked: Kindly determine if z-score of subpopulation abundance recorded for CCCc1nc(C)c2c(=O)nc(-c3cc(S(=O)(=O)N4CCN(CC)CC4)ccc3OCC)[nH]n12 [Vardenafil HCl Trihydrate] is above or exactly 0.5.
Given back: FALSE
